target: human PILRA R78 on cells (human, UniProt Q9UKJ1 20-303); test: cell-based or functional assay
Sequence (Q9UKJ1 20-303 limits assumed): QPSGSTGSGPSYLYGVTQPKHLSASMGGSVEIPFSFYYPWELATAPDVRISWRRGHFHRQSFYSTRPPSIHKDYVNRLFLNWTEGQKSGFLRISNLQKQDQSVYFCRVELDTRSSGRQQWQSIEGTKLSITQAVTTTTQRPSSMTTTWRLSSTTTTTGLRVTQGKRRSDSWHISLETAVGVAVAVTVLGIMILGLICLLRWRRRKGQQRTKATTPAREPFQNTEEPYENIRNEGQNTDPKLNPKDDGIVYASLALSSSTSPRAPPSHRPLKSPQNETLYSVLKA

| binder | unitOfMeasure | pSTAT3 Y705 induction, EC50 (nM) |
| --- | --- | --- |
| Anti-PILRA antibody clone 6 (antibody, V domains shown, the printed lines of the VL are out of order there) VH: EVQLQQSGPELQRPGASVKLSCKASGYTFTEYYMYWVKQRPKQGLELIGRIDPEDGGTDYIEKFKNKATLTADTSSNTAYMQLSSLTSEDTATYFCATTIRGTVFAFWGQGTLVTVSS VL: DIQMTQSPASLSASLGETVTIECRASEDIFNGLAWYQQKPGKSPHLLIYNAKTLHTGVPSRFSGSGSGSQYSLKINSLQSEDVASYFCQQYYDYPLTFGSGTKLEIK | nM | 3.18 |
| Anti-PILRA antibody clone 7 (antibody, V domains shown) VH: EVQLQQSGPELQRPGASVKLSCKASGYTFTEYYMYWVKQRPKQGLELMGRIDPEDGGTDYVEKFKNKATLTADTSSNTAYMQLSSLTSEDTATYFCASTIRGTVFVYWGQGTLVTVSS VL: DIQMTQSPASLSASLGETVTIECRPSEDIYNGLAWYQQKPGESPQLLIYNANSLHTGVPSRFSGSGSGTQYSLKINSLQSEDVASYFCQQYYDYPLTFGSGTKLEIK | nM | 5.38 |
| Anti-PILRA antibody clone 15 (antibody, V domains shown, Humanized; also called Ab.15) VH: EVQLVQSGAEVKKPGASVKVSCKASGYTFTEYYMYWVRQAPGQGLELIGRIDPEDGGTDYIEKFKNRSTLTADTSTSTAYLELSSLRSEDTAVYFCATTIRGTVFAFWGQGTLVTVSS VL: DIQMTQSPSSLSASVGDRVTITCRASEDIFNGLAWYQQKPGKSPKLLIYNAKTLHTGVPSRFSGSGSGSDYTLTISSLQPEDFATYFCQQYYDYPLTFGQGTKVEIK | nM | 5.66 |
